# subject-of-test: recombinant human Tie-2 protein (Homo sapiens, UniProt Q02763)
# Construct: purchased Thermo Fisher Scientific Inc. PV3628
# Sequence (Q02763 23-1124): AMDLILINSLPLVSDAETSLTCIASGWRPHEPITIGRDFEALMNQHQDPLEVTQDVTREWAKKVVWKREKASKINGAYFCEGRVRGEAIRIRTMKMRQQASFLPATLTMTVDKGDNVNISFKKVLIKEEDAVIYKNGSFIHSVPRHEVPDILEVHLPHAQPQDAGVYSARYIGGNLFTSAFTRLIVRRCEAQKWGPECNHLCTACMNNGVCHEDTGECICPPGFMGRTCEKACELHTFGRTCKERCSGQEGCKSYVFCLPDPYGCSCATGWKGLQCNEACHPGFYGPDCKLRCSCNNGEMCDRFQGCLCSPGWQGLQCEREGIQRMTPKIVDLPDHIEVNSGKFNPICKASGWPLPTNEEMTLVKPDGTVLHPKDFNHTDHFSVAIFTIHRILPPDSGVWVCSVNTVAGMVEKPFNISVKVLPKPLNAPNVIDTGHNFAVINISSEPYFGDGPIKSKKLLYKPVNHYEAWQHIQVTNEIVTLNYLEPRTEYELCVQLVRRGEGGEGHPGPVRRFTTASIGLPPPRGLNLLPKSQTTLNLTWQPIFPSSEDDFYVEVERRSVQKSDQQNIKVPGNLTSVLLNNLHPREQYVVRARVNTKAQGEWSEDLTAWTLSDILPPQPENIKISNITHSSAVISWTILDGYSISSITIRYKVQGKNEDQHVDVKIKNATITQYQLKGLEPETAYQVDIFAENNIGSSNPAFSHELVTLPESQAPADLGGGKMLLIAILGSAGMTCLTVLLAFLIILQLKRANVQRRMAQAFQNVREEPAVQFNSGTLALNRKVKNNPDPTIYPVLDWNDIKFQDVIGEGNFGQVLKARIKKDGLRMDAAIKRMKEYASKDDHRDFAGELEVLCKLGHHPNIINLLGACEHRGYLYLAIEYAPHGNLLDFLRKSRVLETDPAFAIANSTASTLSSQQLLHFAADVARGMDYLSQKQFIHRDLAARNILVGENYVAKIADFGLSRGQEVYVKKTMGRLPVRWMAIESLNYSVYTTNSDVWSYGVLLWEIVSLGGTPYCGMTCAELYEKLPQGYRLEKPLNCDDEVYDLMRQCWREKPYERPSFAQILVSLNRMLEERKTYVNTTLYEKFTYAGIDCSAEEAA
# run-description: Z′-Lyte FRET enzymatic activity assay of Tie-2 kinase
# Type: biochemical
# assay-setup: Z′-Lyte assay, 100 μM ATP, n ≥ 2 per concentration; read-out: IC50 (half-maximal inhibitory concentration), Tie-2 kinase
endpoint-name: IC50 (µM)

{"columns": ["compound", "reported-value"],
 "data": [
  ["O=C(OCc1ccccc1)c1cn(-c2ccccc2)nc1-c1ccncc1 [TP-C1-37]", 36.1],
  ["Cc1cc(NC(=S)NC(=O)c2ccc3c(c2)OCO3)ccc1NC(=O)c1ccccc1 [TP-C2-30]", 2.05],
  ["CCCOc1ccc(N2C(=O)CC(N(CCc3ccc(OC)cc3)C(=O)c3cccc(F)c3)C2=O)cc1 (stereo not drawn) [TP-C2-5]", 13.8],
  ["Cc1ccc2nc(-c3ccccn3)cc(C(=O)NC3CCCc4ccccc43)c2c1 (stereo not drawn) [TP-C2-37]", 10.8],
  ["O=C(CSc1nnc(-c2cccnc2)n1-c1ccccc1)c1ccc(F)cc1 [TP-C1-28]", 43.6],
  ["O=C(NC(=S)Nc1ccc(NC(=O)c2ccc(Cl)cc2Cl)cc1)c1ccccc1 [TP-C3-1]", 1.85],
  ["CCCOc1cccc(C(=O)NC(=S)Nc2ccc(NC(=O)c3ccccc3)cc2)c1 [TP-C3-14]", 22.7],
  ["CC(C)(C)c1ccc(C(=O)Nc2ccc(NC(=S)NC(=O)c3ccccc3)cc2)cc1 [TP-C3-2]", 27.1],
  ["COc1ccc(C(=O)NC(=S)Nc2ccc(NC(=O)c3ccccc3)cc2)cc1[N+](=O)[O-] [TP-C3-15]", 13.8],
  ["CC(=O)c1c(C)cc(C)c(CSc2ccccn2)c1C [TP-C2-22]", 8.44],
  ["Cc1ccc2nc(-c3ccc(NC(=S)NC(=O)c4oc5ccccc5c4C)cc3)oc2c1 [TP-C2-12]", 14.6],
  ["COc1cc(NC(=S)NC(=O)c2ccccc2OC)ccc1NC(=O)c1cc2ccccc2o1 [TP-C2-11]", 15.1],
  ["O=C1c2ccccc2C(=O)N1CCc1nn2c(-c3cccnc3)nnc2s1 [TP-C1-52]", 15.3],
  ["Cc1cc(NC(=S)NC(=O)c2ccc(C)c([N+](=O)[O-])c2)ccc1NC(=O)c1ccccc1 [TP-C3-26]", 48.6],
  ["CCCOc1ccc(C(=O)NC(=S)Nc2ccc(NC(=O)c3ccc(C(C)(C)C)cc3)cc2)cc1 [TP-C3-52]", 36.7],
  ["CCc1ccc(C(=O)NC(=S)Nc2ccc(NC(=O)c3ccc(Cl)cc3Cl)cc2)cc1 [TP-C3-55]", 3.47],
  ["CCOc1ccc2c(c1)-c1c(ssc1=S)C(C)(C)N2C(=O)CSc1nc(C)cc(O)n1 [TP-C1-17]", 4.45],
  ["COc1ccc(C(=O)NC(=S)Nc2ccc(NC(=O)c3cccc(C)c3)cc2)cc1OC [TP-C2-9]", 1.86]
]}

###

# subject-of-test: recombinant human Tie-2 protein (Homo sapiens)
# Construct: purchased Thermo Fisher Scientific Inc. PV3628
# run-description: Z′-Lyte FRET enzymatic activity assay of Tie-2 kinase
# Assay type: biochemical
# assay-setup: 10 μg/mL preliminary screening, Table S1
Inhibition (%) @10 μg/ml by entry:

{"columns": ["molecule", "Inhibition (%) @10 μg/ml"],
 "data": [
  ["CC(=O)c1cccc(NC(=O)CSc2nnc(CSCc3ccccc3F)n2C)c1", "63.31±0.29%"],
  ["COc1ccc(C(CC(=O)c2ccccc2)CC(=O)c2ccccc2)cc1OC", "47.13±8.4%"],
  ["COc1ccc(C2C(C(=O)c3cccs3)=C(O)C(=O)N2CCN(C)C)cc1OC (racemic)", "66.32±3.22%"],
  ["COc1ccc(CNC(=O)CSc2nc3ccc(NC(=O)c4ccccc4C)cc3s2)cc1", "47.23±0.53%"],
  ["Cc1cccc(-n2c(CCN3C(=O)c4ccccc4C3=O)nc3ccccc3c2=O)c1", "44.25±1.05%"],
  ["CN1C(=O)c2ccc(C(=O)NCc3ccccn3)cc2C1=O", "77.63±0.16%"],
  ["CC1=C(C(=O)Nc2ccc(C)cc2C)C(c2ccc(O)cc2)NC(=S)N1 (stereo not drawn)", "58.96±3.25%"],
  ["Cc1c(C(=O)NC(=S)Nc2ccc(-c3nc4ccccc4s3)cc2)oc2ccccc12", "84.1±0.44%"],
  ["O=C(CSc1nnc(-c2cccnc2)n1-c1ccccc1)c1ccc(F)cc1", "71.3±0.7%"]
]}
